target under test: purified recombinant perforin (Mus musculus)
protocol notes: cell-based
assay setup: lysis of Jurkat cells by purified recombinant perforin, 51Cr release, 0.1% BSA; average of at least three determinations; read-out: inhibition of Jurkat cell lysis, IC50
Hi! Could you tag entries with IC50 below 3 µM as 1.0, and those at or above as 0.0? Much appreciated.

Consider the following illustrative entries.
molecule	cat
O=C1NC(=S)N/C1=C\c1cccc(-c2ccc3c(c2)CNC3=O)c1 [compound 206]	0.0
O=C1NC(=S)N/C1=C/c1ccc(-c2ccc3c(c2)CN(CCCN2CCCC2)C3=O)s1 [compound 134]	0.0

// query Consider CC1c2cc(-c3ccc(/C=C4/NC(=S)NC4=O)s3)ccc2C(=O)N1C (stereo not shown) [compound 135] . Does its IC50 lie strictly below 3 µM?
// result 0.0

// query Consider O=C1NC(=S)N/C1=C/c1ccc(-c2ccc(Br)cc2)s1 [compound 55] . Does its IC50 lie strictly below 3 µM?
// result 1.0

// query Consider O=C1NC(=S)N/C1=C/c1cc2cc(-c3ccc4c(c3)CCNC4=O)ccc2[nH]1 [compound 211] . Does its IC50 lie strictly below 3 µM?
// result 1.0

// query Consider O=C1NC(=S)N/C1=C/c1ccc(-c2ccc3c(c2)CNC3=O)cc1 [compound 205] . Does its IC50 lie strictly below 3 µM?
// result 0.0

====

For each entry below, report its pIC50 value.
target under test: purified recombinant perforin (Mus musculus, UniProt P10820)
Sequence (P10820 21-554): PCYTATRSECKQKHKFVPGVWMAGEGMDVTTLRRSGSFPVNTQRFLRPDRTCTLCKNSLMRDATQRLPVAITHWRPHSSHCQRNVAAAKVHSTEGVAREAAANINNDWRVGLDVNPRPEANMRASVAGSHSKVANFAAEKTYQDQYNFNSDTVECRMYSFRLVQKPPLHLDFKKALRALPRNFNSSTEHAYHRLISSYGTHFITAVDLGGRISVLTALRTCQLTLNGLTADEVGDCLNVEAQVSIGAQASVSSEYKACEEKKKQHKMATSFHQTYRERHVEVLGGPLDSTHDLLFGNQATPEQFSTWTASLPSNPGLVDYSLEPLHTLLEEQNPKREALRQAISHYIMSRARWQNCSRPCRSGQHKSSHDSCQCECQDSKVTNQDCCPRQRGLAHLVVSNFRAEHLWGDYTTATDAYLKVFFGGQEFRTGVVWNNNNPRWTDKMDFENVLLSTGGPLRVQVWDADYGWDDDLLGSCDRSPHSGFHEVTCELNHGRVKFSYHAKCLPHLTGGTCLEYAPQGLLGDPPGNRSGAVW
protocol notes: cell-based
assay setup: lysis of Jurkat cells by purified recombinant perforin, 51Cr release, 0.1% BSA; average of at least three determinations; read-out: inhibition of Jurkat cell lysis, IC50
pIC50: −log10 of the molar value.

# return pIC50 for each item in the list
1. O=C1NC(=S)N/C1=C/c1ccc(-c2ccc(C(=O)NCCN3CCOCC3)cc2)s1
2. CN(C)CCCN1Cc2cc(-c3ccc(/C=C4/NC(=S)NC4=O)s3)ccc2C1=O
3. O=C1NC(=S)N/C1=C/c1ccc(-c2ccccc2Cl)s1

// result
1: < 4.70; 2: < 4.70; 3: < 4.70

====

protocol notes: Toxicity to KHYG-1 NK cells (Trypan blue exclusion)
Assay type: cell-based, human
assay setup: human, KHYG-1 NK cells; 20 μM, 4 h exposure, viability after 24 h, Trypan blue, ± SEM
For each entry below, report its viability at 4 h, 20 µM value.
Give bare numbers, in %.

Example entries begin here.
compound	test result
O=C1NC(=S)N/C1=C/c1ccc(-c2ccc3c(c2)COC3=O)s1 [compound 4]	88
O=C1NC(=S)N/C1=C/c1ccc(-c2ccc3c(c2)CNC3=O)cn1 [compound 207]	92

Pending compound:
response.value for O=C1NC(=S)N/C1=C/c1ccc(-c2ccc3c(c2)CN(CCCO)C3=O)s1 [compound 126] (field: viability at 4 h, 20 µM) = 90
